Source of measurements: ChEMBL document CHEMBL5550204

- EXPERIMENTAL_PROTOCOL: MRT (0 to t) in Sprague-Dawley rat at 2 mg/kg,iv measured upto 24 hrs by LC-MS/MS analysis
- Format: ADME, organism-based
- CONDITION: in vivo
MEASUREMENT_TYPE: MRT last at 24 h (h)
Numeric answer only, unit h assumed.

Measured MRT last at 24 h of Cc1ccc2c(-c3ccc4ncnc(N[C@H](CO)c5ccccc5)c4c3)c[nH]c2n1 : 3.81

----------
- TESTED_TARGET: CYP2E1 (Homo sapiens, UniProt P05181)
- Sequence (P05181 whole entry): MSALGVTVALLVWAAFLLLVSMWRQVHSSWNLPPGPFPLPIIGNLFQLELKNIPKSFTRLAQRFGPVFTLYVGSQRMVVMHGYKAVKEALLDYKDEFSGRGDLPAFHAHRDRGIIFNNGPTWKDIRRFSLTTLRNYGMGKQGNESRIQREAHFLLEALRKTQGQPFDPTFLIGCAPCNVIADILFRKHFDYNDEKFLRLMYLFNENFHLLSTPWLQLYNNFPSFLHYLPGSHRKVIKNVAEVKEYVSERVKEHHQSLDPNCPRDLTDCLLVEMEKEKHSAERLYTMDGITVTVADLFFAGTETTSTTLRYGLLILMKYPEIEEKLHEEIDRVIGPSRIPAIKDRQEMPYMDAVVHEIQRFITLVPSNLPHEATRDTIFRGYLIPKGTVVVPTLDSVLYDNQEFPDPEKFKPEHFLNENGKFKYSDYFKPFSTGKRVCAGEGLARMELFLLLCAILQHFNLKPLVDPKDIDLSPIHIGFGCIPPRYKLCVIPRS
- EXPERIMENTAL_PROTOCOL: Inhibition of CYP2E1 in human liver microsomes using chlorzoxazone as substrate at 10 uM preincubated for 10 mins followed by NADPH addition and measured after 40 mins by LC-MS/MS analysis relative to control
- CONDITION: probe chlorzoxazone
MEASUREMENT_TYPE: inhibition at 40 min, 10 µM (%)
Your answer is read as %, so omit the unit and give the number.

Quick note, inhibition at 40 min, 10 µM for Cc1ccc2c(-c3ccc4ncnc(N[C@H](CO)c5ccccc5)c4c3)c[nH]c2n1 landed at 0.07

----------
- EXPERIMENTAL_PROTOCOL: Apparent permeability across apical to basolateral side in dog MDCK-MDR1 cells at 5 uM incubated for 90 mins by LC-MS/MS analysis
- Format: ADME, cell-based, Canis lupus familiaris
Lab note: cut-off is 7 ×10⁻⁶ cm/s. Strictly less in Papp A→B at […], 5 µM is MET. Exactly 7 ×10⁻⁶ cm/s or more is NOT MET.

# count of solved cases: 3
COMPOUND	QUALITATIVE_LABEL
Cc1ccc2c(-c3ccc4ncnc(NC[C@H](O)c5ccccc5)c4c3)c[nH]c2n1	MET
Cc1ccc2c(-c3ccc4ncnc(N[C@H](CO)c5ccccc5)c4c3)c[nH]c2n1	MET
C[C@H]1O[C@@H](O[C@H]2[C@@H](O)C[C@H](O[C@H]3[C@@H](O)C[C@H](O[C@H]4CC[C@@]5(C)[C@H](CC[C@@H]6[C@@H]5C[C@@H](O)[C@]5(C)[C@@H](C7=CC(=O)OC7)CC[C@]65O)C4)O[C@@H]3C)O[C@@H]2C)C[C@H](O)[C@@H]1O	MET

Lab note: confirm whether the reported Papp A→B at […], 5 µM for this compound is below 7 ×10⁻⁶ cm/s, equality not counting. compound: COCCc1ccc(OCC(O)CNC(C)C)cc1 (stereo not given)
NOT MET

----------
- EXPERIMENTAL_PROTOCOL: Metabolic stability in human liver microsomes assessed as half life at 1 uM incubated upto 45 mins in presence of NADPH by LC-MS/MS analysis
- Format: ADME, Microsome
MEASUREMENT_TYPE: half-life at […], 1 µM (min)
# value in min; strip the unit string

COc1ccc(Nc2ncnc3ccc(-c4c[nH]c5nc(C)ccc45)cc23)c(F)c1 70.5

Field half-life at […], 1 µM (entry Cc1ccc2c(-c3ccc4ncnc(NC[C@H](O)c5ccccc5)c4c3)c[nH]c2n1 ) reads 19.7

Entry O=C(c1ccc(F)cc1)C1CCN(CCn2c(=O)[nH]c3ccccc3c2=O)CC1 , half-life at […], 1 µM reported as 36.3

Form field half-life at […], 1 µM, entry Cc1ccc2c(-c3ccc4ncnc(N[C@H](CO)c5ccccc5)c4c3)c[nH]c2n1 : 92

----------
// reported efflux ratio at […], 5 µM for each item listed
- EXPERIMENTAL_PROTOCOL: Efflux ratio of apparent permeability across basolateral to apical side to apical to basolateral side in dog MDCK-MDR1 cells at 5 uM incubated for 90 mins by LC-MS/MS analysis
- Type: ADME, cell-based, Canis lupus familiaris
In your answer, state the number alone without any accompanying words.

MOLECULE	READOUT_NUMBER
C[C@H]1O[C@@H](O[C@H]2[C@@H](O)C[C@H](O[C@H]3[C@@H](O)C[C@H](O[C@H]4CC[C@@]5(C)[C@H](CC[C@@H]6[C@@H]5C[C@@H](O)[C@]5(C)[C@@H](C7=CC(=O)OC7)CC[C@]65O)C4)O[C@@H]3C)O[C@@H]2C)C[C@H](O)[C@@H]1O	39.9
COc1ccc(Nc2ncnc3ccc(-c4c[nH]c5nc(C)ccc45)cc23)c(F)c1	1.68

// switching to the query molecule
// sample COCCc1ccc(OCC(O)CNC(C)C)cc1 (stereo not drawn) , its efflux ratio at […], 5 µM was 0.86

----------
- TESTED_TARGET: CDK9/cyclin T1 (Homo sapiens, UniProt P50750)
- Sequence (O60563 whole entry): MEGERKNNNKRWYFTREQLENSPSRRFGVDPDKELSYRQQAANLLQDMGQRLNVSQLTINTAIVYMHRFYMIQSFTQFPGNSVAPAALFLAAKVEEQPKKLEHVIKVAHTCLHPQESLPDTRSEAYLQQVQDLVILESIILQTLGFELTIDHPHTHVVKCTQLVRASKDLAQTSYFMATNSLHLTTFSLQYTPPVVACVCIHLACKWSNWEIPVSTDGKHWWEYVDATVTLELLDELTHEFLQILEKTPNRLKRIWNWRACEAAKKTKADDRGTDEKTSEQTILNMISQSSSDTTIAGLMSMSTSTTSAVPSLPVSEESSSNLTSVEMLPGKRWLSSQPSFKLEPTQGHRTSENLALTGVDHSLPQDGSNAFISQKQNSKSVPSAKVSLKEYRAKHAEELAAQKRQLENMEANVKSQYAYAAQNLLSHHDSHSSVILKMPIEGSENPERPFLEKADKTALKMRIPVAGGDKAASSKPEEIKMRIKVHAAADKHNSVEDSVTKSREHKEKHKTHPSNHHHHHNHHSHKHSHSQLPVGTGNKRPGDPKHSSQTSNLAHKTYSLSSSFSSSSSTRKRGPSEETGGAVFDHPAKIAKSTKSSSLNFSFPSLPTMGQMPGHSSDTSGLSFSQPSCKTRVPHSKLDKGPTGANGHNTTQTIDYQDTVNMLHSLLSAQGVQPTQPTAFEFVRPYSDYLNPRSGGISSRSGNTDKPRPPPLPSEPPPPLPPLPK
- Sequence (P50750 whole entry): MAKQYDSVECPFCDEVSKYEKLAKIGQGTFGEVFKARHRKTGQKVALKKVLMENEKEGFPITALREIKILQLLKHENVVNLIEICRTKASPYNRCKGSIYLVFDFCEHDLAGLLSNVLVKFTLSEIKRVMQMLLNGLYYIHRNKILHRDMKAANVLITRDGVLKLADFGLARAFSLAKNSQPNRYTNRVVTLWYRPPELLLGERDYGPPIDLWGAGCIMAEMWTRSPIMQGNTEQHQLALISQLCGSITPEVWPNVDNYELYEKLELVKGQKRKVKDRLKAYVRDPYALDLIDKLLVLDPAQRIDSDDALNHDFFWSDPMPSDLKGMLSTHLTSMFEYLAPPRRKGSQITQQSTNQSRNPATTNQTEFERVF
- EXPERIMENTAL_PROTOCOL: Inhibition of CDK9/Cyclin T1 (unknown origin) preincubated with enzyme for 10 mins followed by substrate and ATP addition measured after 60 mins by ADP-Glo reagent based assay
Each item that follows carries a reported IC50.
Numbers only here, please. The scale is nM.

Solved entries (count: 2):
COc1ccc(Nc2ncnc3ccc(-c4c[nH]c5ncccc45)cc23)c(F)c1 54.9
OC[C@@H](Nc1ncnc2ccc(-c3c[nH]c4ncccc34)cc12)c1ccccc1 1050

Attention now turns to another entry.
Field IC50 (entry O[C@@H](CNc1ncnc2ccc(-c3c[nH]c4ncccc34)cc12)c1ccccc1 ) reads 212

----------
- TESTED_TARGET: Dual specificity tyrosine-phosphorylation-regulated kinase 4 (Homo sapiens, UniProt Q9NR20)
- Sequence (Q9NR20 whole entry): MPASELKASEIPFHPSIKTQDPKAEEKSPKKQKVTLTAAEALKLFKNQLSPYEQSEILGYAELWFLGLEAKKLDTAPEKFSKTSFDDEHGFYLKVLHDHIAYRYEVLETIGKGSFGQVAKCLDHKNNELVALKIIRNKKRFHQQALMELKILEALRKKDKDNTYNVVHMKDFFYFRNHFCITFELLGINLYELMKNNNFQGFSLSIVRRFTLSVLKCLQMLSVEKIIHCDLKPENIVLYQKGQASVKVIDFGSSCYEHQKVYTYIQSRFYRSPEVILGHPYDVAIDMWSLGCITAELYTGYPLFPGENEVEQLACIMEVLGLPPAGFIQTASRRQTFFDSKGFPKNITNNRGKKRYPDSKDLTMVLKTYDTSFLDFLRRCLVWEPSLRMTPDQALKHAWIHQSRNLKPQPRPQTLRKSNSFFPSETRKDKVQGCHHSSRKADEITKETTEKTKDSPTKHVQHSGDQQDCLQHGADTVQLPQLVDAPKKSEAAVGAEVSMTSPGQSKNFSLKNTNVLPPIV
- EXPERIMENTAL_PROTOCOL: Inhibition of DYRK4 (unknown origin) preincubated with enzyme for 10 mins followed by substrate and ATP addition measured after 60 mins by ADP-Glo reagent based assay
MEASUREMENT_TYPE: pIC50
// returns pIC50 (minus log10 of molar concentration), number only

The measured pIC50 associated with Cc1ccc2c(-c3ccc4ncnc(N[C@H](CO)c5ccccc5)c4c3)c[nH]c2n1 reads 6.40

----------
- EXPERIMENTAL_PROTOCOL: Cmax in Sprague-Dawley rat at 10 mg/kg,po measured upto 24 hrs by LC-MS/MS analysis
- Type: ADME, organism-based
- CONDITION: in vivo
MEASUREMENT_TYPE: Cmax (ng/mL)
Value expressed in ng/mL; do not type the unit.

// Cc1ccc2c(-c3ccc4ncnc(N[C@H](CO)c5ccccc5)c4c3)c[nH]c2n1 : Cmax value = 230

----------
- EXPERIMENTAL_PROTOCOL: Clearance in Sprague-Dawley rat at 2 mg/kg,iv measured upto 24 hrs by LC-MS/MS analysis
- Format: ADME, organism-based
- CONDITION: in vivo
MEASUREMENT_TYPE: clearance (mL/min/kg)
All answers are understood in mL/min/kg, so give the number only.

The molecule listed as Cc1ccc2c(-c3ccc4ncnc(N[C@H](CO)c5ccccc5)c4c3)c[nH]c2n1 has a reported clearance of 23.7

----------
- TESTED_TARGET: Dual specificity protein kinase CLK3 (Homo sapiens, UniProt P49761)
- Sequence (P49761 whole entry): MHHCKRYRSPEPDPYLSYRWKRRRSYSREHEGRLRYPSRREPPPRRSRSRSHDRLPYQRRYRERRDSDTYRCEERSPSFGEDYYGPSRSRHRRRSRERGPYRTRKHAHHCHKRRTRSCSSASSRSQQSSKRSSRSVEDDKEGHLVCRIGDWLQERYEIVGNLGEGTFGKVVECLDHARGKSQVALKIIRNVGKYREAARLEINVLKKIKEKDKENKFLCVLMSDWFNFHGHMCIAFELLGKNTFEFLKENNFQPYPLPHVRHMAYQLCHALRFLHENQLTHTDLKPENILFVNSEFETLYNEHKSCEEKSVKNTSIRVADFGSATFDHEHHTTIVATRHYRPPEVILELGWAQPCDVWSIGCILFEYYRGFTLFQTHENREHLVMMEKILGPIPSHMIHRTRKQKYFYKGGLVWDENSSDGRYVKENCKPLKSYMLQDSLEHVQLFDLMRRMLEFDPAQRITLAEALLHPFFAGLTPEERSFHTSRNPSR
MEASUREMENT_TYPE: pIC50
Units for pIC50: none; it is -log10 of a concentration expressed in mol/L.

Entry Cc1ccc2c(-c3ccc4ncnc(N[C@H](CO)c5ccccc5)c4c3)c[nH]c2n1 , pIC50 reported as 7.41

----------
- EXPERIMENTAL_PROTOCOL: Drug concentration in Sprague-Dawley rat brain at 10 mg/kg,po measured after 1 hr by LC-MS/MS analysis
- Assay type: ADME, organism-based
- CONDITION: read-out: Ct
MEASUREMENT_TYPE: concentration at 1 h (ng/g)
Write it as a number; the unit ng/g goes unstated.

So for Cc1ccc2c(-c3ccc4ncnc(N[C@H](CO)c5ccccc5)c4c3)c[nH]c2n1 , the logged concentration at 1 h turned out to be 26.9

----------
- TESTED_TARGET: UniProtKB Q13627
Each record's IC50 is compared with lo = under 0.8 nM, med = from 0.8 nM up to 2 nM, hi = 2 nM and over to give its class.

C[C@@H](Nc1ncnc2ccc(-c3c[nH]c4ncccc34)cc12)c1cccc(Cl)c1 med
CC(C)(CNc1ncnc2ccc(-c3c[nH]c4ncccc34)cc12)C(=O)O lo
C[C@H](Nc1ncnc2ccc(-c3c[nH]c4ncccc34)cc12)c1ccccc1 hi
C[C@@H](Nc1ncnc2ccc(-c3c[nH]c4ncccc34)cc12)c1cccc(F)c1 lo
COc1ccc(Nc2ncnc3ccc(-c4c[nH]c5ncccc45)cc23)c(F)c1 lo
COc1ccc(Nc2ncnc3ccc(-c4c[nH]c5nc(C)ccc45)cc23)c(F)c1 hi

Which class is correct for the following compound? COc1ccc(Nc2ncnc3ccc(-c4c[nH]c5ncccc45)cc23)cc1
med

For the record COc1ccc(Nc2ncnc3ccc(-c4c[nH]c5ncccc45)cc23)cc1F , report the class its IC50 corresponds to.
hi

Dear colleague, I would appreciate it if you could identify the bin for O=C(O)[C@@H]1CCCN(c2ncnc3ccc(-c4c[nH]c5ncccc45)cc23)C1 and reply at your convenience.
med

----------
- TESTED_TARGET: Dual specificity tyrosine-phosphorylation-regulated kinase 1A (Homo sapiens, UniProt Q13627)
pIC50: −log10 of the molar value.
The label depends only on pIC50: Criterion met if it is at least 9, Criterion not met if it is smaller.

Is it the case that Fc1ccc(Nc2ncnc3ccc(-c4c[nH]c5ncccc45)cc23)cc1F has pIC50 reaching or exceeding 9?
Criterion not met

Could you tell me if the measured pIC50 of c1ccc(Nc2ncnc3ccc(-c4c[nH]c5ncccc45)cc23)cc1 reaches 9 or more?
Criterion met

Has Fc1ccc(Nc2ncnc3ccc(-c4c[nH]c5ncccc45)cc23)c(F)c1 a recorded pIC50 greater than or equal to 9?
Criterion met

Say whether C[C@@H](Nc1ncnc2ccc(-c3c[nH]c4ncccc34)cc12)c1ccc(F)cc1 shows pIC50 of 9 or more.
Criterion not met
